Property: pIC50; scope: individual binders
- TARGET_OF_ASSAY: human β-Klotho extracellular domain (aa1–992) fused with a 6 × His tag at the C-terminus (human, UniProt Q86Z14 1-992, biotin (EZ-Link Sulfo-NHS-LC-Biotin) in the bio-layer interferometry)
- Sequence (Q86Z14 53-992): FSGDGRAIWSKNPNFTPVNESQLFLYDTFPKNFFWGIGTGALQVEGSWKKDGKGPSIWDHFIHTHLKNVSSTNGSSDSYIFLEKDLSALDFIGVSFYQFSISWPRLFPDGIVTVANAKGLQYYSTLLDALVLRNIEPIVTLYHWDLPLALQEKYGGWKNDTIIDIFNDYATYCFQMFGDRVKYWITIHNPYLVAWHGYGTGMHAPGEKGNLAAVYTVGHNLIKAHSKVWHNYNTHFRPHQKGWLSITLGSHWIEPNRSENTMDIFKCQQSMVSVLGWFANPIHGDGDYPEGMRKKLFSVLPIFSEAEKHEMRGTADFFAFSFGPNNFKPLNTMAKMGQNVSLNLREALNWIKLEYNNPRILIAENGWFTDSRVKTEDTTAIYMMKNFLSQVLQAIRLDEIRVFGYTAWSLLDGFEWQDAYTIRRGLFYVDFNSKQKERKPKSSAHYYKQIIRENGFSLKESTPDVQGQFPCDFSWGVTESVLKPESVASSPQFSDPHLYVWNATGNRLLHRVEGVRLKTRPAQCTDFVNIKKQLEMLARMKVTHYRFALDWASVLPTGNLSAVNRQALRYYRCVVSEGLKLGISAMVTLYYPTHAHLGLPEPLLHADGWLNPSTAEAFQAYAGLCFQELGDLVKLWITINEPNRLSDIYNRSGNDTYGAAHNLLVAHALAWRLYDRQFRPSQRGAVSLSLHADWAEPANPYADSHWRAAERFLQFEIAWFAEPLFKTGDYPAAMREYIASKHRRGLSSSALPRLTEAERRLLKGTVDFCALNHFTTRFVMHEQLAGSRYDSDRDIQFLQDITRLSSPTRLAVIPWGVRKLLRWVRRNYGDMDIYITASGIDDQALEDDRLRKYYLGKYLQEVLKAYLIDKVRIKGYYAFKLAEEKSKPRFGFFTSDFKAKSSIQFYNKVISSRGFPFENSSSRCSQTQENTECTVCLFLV
- PROTOCOL: competition with FGF21 (AlphaScreen)
Please note pIC50 is a logarithmic value: minus log10 of concentration in mol/L. Answer with that number alone.

Some binders with known pIC50 results, for comparison:
Which pIC50 is listed for PQPPDVGSSDPLSMVAPSQGRSPSYAS [FGF21 183-209 198G-A] ? 8.22

Cool, now AQPPDVGSSDPLSMVGPSQGRSPSYAS [FGF21 183-209 183P-A] 8.35

Now for the binder whose pIC50 we want.
Which pIC50 is listed for PQPPDVGSSDPLSMVGPSQGRSPSYAS [FGF21 183-209] ? 8.68
